Method Description: Compound solubilisation
Type: physicochemical
Recorded Conditions: aqueous buffer, kinetic from dmso stock; 50 mM HEPES buffer, pH 7.6, diluted from 100 mM DMSO stock; read-out: concentration at which the compound was soluble
Outcome Measure: solubility (µM)

Molecule: O=C(CSc1nnc(-c2c[nH]c3ccccc23)o1)Nc1ccc(C(=O)O)cc1 [Compound C35]
Recorded Number: 500
